Molecular target: Itk (Homo sapiens)
Construct: Kinases are expressed as either kinase domains or full length constructs; made in house
Sequence (Q08881 whole entry, species assumed, the tested form may be a part): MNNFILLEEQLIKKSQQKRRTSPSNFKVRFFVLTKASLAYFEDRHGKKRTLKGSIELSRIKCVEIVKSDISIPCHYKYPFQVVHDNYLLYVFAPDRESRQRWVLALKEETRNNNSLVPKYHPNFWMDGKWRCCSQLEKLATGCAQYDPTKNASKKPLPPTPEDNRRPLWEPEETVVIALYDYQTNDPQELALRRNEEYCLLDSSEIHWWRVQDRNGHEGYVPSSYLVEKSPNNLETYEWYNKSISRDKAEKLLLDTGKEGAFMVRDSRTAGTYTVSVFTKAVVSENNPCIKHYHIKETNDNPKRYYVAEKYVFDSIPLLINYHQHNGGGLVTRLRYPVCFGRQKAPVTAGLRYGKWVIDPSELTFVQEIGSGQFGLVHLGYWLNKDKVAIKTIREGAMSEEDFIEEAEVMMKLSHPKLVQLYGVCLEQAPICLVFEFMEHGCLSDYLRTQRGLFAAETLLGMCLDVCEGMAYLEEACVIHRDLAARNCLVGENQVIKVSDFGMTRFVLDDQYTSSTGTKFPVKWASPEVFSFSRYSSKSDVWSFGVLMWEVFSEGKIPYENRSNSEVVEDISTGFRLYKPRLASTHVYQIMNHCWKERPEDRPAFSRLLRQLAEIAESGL
Assay: Kinase inhibition assay (33P transfer), Itk
Type: biochemical
Settings: Table 3, class symbols; read-out: Itk-1
measured-endpoint: IC50

compound="CN(c1cccc(Cl)c1)c1ncnc(Nc2ccc3nn(Cc4ccccc4)cc3c2)n1 [Compound 673]" reading="> 10.2 µM"
compound="O=C(O)c1cccc(Nc2ncnc(-n3c(NCc4ccccc4)nc4ccccc43)n2)c1 [Compound 1069]" reading="> 10.3 µM"
compound="c1ccc(CNc2nc3ccccc3n2-c2ncnc(Nc3cccc(Cn4ccnn4)c3)n2)nc1 [Compound 962]" reading="> 9.46 µM"
compound="Fc1ccc(Nc2ncnc(Nc3ccc4c(cnn4Cc4ccccc4)c3)n2)cc1F [Compound 902]" reading="> 10.5 µM"
compound="c1cc(Cn2ccnn2)cc(Nc2ncnc(-n3c(Nc4ccc5[nH]ccc5c4)nc4ccccc43)n2)c1 [Compound 963]" reading="4.8 to 7.01 µM"
compound="c1coc(-c2cc(Nc3ncnc(Nc4ccc(-c5csnn5)cc4)n3)n[nH]2)c1 [Compound 891]" reading="0.991 to 5.95 µM"
compound="COc1ccc(CNc2nc3ccccc3n2-c2ncnc(Nc3cccc(C(=O)O)c3)n2)cc1 [Compound 1070]" reading="> 9.63 µM"
compound="COc1cccc(CCNc2ncnc(Nc3ccc4c(cnn4Cc4ccccc4)c3)n2)c1OC [Compound 873]" reading="> 9.34 µM"
compound="COC(=O)c1ccc(-c2cc(Nc3ncnc(NCCc4c[nH]c5ccccc45)n3)[nH]n2)cc1 [Compound 806]" reading="0.88 to 5.28 µM"
compound="C#Cc1cccc(Nc2ncnc(Nc3cc(-c4ccccc4)n[nH]3)n2)c1 [Compound 1008]" reading="1.13 to 6.79 µM"

**Query** Item COc1ccc(Nc2ncnc(N(C)c3ccc(C)cc3)n2)cc1OC [Compound 799] : provide IC50
**Result** > 12.8 µM

**Query** Quickly give me recorded IC50 for c1ccc(-c2cc(Nc3ncnc(Nc4cccc(-c5cnco5)c4)n3)[nH]n2)cc1 [Compound 1010]
**Result** 6.05 to 8.83 µM

**Query** Please give the documented IC50 of c1ccc(Nc2ncccc2-c2ncnc(Nc3ccc4[nH]ncc4c3)n2)cc1 [Compound 1117]
**Result** > 11.8 µM

**Query** Report IC50, nothing else, for this compound: COc1ccc(N(C)c2ncnc(Nc3ccc(OC)c(OC)c3)n2)cc1 [Compound 863]
**Result** > 12.2 µM

**Query** Look up and report measured IC50 for this entry: Cc1ccc2c(c1)CCCN2c1ncnc(Nc2cccc(Cc3nnn[nH]3)c2)n1 [Compound 635]
**Result** > 11.3 µM

**Query** Look up IC50 of COc1cc(Nc2ncnc(N3CCCc4ccc(Cl)cc43)n2)cc(OC)c1OC [Compound 645] and report it.
**Result** > 10.5 µM

----------
Target: c-Met (Homo sapiens, UniProt P08581)
Construct: Kinases are expressed as either kinase domains or full length constructs; made in house
Sequence (P08581 25-1390): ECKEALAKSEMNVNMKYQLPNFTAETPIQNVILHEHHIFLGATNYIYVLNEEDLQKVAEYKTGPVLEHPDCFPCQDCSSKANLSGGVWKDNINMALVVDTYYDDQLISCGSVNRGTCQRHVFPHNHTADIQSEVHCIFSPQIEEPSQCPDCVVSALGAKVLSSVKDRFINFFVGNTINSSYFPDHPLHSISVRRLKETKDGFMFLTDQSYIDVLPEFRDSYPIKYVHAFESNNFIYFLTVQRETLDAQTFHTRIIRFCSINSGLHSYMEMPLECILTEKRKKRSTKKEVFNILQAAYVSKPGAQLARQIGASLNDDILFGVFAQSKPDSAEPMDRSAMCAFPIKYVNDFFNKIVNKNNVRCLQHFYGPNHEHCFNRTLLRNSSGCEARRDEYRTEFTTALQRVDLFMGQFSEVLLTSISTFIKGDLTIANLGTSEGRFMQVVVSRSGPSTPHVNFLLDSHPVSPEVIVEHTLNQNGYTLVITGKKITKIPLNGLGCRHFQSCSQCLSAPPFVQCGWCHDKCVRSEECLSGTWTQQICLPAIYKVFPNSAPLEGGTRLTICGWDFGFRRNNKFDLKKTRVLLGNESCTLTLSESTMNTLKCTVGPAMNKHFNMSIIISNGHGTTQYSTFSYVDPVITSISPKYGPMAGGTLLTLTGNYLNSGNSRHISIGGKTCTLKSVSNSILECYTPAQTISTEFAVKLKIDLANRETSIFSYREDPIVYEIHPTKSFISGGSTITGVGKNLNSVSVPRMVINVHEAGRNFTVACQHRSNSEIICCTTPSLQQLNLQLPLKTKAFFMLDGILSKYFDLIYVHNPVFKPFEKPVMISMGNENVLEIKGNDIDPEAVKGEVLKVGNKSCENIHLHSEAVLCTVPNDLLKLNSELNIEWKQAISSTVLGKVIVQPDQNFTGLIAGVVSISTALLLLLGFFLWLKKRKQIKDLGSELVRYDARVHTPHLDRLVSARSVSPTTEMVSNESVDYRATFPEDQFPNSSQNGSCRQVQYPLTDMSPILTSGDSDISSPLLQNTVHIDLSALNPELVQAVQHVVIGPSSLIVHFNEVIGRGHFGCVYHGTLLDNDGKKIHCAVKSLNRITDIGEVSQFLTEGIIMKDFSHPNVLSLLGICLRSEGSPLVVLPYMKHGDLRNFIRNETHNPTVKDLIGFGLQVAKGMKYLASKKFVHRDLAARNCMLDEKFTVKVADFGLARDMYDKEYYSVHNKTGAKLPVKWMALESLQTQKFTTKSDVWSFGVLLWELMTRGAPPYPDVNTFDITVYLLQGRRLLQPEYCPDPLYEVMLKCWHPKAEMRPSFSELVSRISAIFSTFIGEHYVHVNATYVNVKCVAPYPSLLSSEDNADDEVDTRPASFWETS
Assay: Kinase inhibition assay (33P transfer), c-Met
Assay type: biochemical
Conditions: Table 2, kinase inhibition class; read-out: Met-1
measured-endpoint: IC50

Illustrative cases are given below, each with its answer.
mol_smiles=COc1cc(Nc2ncnc(N3CCCc4ccc(C(F)(F)F)cc43)n2)cc(OC)c1OC measured_endpoint=IC50 reading="> 9.75 µM"
mol_smiles=COc1cc(Nc2ncnc(-n3c(NCc4nccs4)nc4ccccc43)n2)cc(OC)c1OC measured_endpoint=IC50 reading="> 9.17 µM"
mol_smiles=CCN(CC)CCOc1cc(Nc2ncnc(-n3c(N)nc4ccccc43)n2)ccc1OC measured_endpoint=IC50 reading="> 10 µM"
mol_smiles=Fc1ccc(Nc2ncnc(Nc3ccc4cn[nH]c4c3)n2)cc1Cl measured_endpoint=IC50 reading="> 12.6 µM"
mol_smiles=COC(=O)c1cc(Nc2ncnc(Nc3cc(-c4ccco4)n[nH]3)n2)cc(C(=O)OC)c1 measured_endpoint=IC50 reading="8.04 to 10.3 µM"
mol_smiles=COc1cc(Nc2ncnc(-c3cccnc3NCCN3CCCCC3)n2)cc(OC)c1OC measured_endpoint=IC50 reading="> 9.67 µM"
mol_smiles=COCCOc1ccc(Nc2ncnc(-c3ccccc3)n2)cc1 measured_endpoint=IC50 reading="> 14 µM"
mol_smiles=COc1cc(Nc2ncnc(-c3cc4ccccc4s3)n2)cc(OC)c1OC measured_endpoint=IC50 reading="> 11.4 µM"

**Query** Recall the reported IC50 of COc1cc(Nc2ncnc(Nc3nccs3)n2)cc(OC)c1OC on c-Met (Homo sapiens, UniProt P08581) and write it down.
**Result** > 12.5 µM

**Query** State recorded IC50 with c-Met (Homo sapiens, UniProt P08581), entry COc1cc(Nc2ncnc(NN3CCOCC3)n2)cc(OC)c1OC , no comment.
**Result** > 12.4 µM

----------
Target: Zap-70 (Homo sapiens, UniProt P43403)
Construct: Kinases are expressed as either kinase domains or full length constructs; made in house
Sequence (P43403 whole entry, species assumed, the tested form may be a part): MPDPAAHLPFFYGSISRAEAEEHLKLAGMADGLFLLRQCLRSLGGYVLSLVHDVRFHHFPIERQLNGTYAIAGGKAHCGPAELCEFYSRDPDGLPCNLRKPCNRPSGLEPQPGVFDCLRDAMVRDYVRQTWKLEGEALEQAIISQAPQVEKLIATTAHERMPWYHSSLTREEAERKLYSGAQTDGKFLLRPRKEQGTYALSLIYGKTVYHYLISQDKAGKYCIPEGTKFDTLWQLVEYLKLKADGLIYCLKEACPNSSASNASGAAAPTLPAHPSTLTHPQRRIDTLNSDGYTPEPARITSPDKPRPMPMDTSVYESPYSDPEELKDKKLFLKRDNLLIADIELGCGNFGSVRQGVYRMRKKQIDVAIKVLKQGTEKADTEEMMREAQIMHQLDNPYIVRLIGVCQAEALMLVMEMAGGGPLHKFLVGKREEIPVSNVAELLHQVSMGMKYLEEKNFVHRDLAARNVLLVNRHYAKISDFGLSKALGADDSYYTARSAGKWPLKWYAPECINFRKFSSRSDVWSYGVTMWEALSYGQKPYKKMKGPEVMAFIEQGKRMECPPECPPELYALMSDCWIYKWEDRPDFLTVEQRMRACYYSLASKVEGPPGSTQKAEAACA
Assay: Kinase inhibition assay (33P transfer), Zap-70
Assay type: biochemical
Conditions: Table 3, class symbols; read-out: Zap-1
pIC50: −log10 of the molar value.
measured-endpoint: pIC50

Known pIC50 results, listed for orientation:
compound="CC(C)Nc1ncccc1-c1ncnc(Nc2ccc3[nH]ncc3c2)n1 [Compound 1116]" system_under_test="Zap-70 (Homo sapiens, UniProt P43403)" reading="< 4.89"
compound="CCOC(=O)c1cccc(Nc2ncnc(Nc3cc(-c4ccc(C(=O)OC)cc4)n[nH]3)n2)c1 [Compound 813]" system_under_test="Zap-70 (Homo sapiens, UniProt P43403)" reading="< 5.01"
compound="CC(C)Nc1ncccc1-c1ncnc(Nc2cccc(Cn3ccnn3)c2)n1 [Compound 1098]" system_under_test="Zap-70 (Homo sapiens, UniProt P43403)" reading="< 4.94"

For the next question, use this compound.
**Query** Determine its reported pIC50: COc1cc(Nc2ncnc(-c3cccnc3NC3CCN(Cc4ccccc4)CC3)n2)cc(OC)c1OC [Compound 847]
**Result** < 5.07

----------
Biological target: Kdr (Homo sapiens)
Construct: Kinases are expressed as either kinase domains or full length constructs; made in house
Sequence (P35968 20-1356, species assumed): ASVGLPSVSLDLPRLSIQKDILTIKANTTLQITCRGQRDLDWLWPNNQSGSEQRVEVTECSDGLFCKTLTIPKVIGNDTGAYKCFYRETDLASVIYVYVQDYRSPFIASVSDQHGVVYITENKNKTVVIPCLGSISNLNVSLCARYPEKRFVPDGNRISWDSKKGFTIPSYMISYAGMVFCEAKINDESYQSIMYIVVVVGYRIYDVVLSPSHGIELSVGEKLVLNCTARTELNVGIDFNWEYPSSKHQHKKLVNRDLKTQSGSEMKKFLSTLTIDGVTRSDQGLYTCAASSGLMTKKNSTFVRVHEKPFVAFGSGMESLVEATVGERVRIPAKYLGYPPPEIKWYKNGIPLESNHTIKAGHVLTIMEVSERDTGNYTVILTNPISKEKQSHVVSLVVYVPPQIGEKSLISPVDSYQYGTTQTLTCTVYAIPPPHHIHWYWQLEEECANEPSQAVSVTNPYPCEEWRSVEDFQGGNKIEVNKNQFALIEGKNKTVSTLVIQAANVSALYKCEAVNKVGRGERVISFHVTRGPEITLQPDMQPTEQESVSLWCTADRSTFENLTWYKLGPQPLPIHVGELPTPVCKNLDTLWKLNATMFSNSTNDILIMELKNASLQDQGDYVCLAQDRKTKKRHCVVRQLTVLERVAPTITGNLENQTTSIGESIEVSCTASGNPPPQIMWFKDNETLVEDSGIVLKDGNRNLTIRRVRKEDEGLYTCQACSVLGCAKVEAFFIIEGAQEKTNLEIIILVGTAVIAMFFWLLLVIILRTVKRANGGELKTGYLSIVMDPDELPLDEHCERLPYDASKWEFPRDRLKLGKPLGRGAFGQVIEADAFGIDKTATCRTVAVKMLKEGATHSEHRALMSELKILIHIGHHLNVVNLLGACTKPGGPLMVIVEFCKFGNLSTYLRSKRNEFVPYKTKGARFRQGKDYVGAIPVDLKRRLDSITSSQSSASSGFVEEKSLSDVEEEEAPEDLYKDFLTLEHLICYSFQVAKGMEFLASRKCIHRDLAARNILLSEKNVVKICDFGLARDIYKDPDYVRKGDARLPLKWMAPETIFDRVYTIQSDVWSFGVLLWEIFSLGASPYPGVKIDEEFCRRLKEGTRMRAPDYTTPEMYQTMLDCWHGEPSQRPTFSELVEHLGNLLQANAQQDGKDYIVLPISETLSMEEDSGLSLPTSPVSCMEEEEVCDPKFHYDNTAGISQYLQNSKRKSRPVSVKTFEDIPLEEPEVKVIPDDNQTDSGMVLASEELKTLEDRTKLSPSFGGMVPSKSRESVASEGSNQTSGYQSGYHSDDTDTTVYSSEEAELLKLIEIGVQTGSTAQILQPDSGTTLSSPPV
Experiment: Kinase inhibition assay (33P transfer), Kdr
Format: biochemical
Conditions: Table 3; read-out: KDR-1
Source text: The inhibitor compounds described herein are screened in the following manner. […] Kinases are expressed as either kinase domains or full length constructs fused to glutathione S-transferase (GST) or polyHistidine tagged fusion proteins in either E. colior Baculovirus-High Five expression systems. […]
pIC50: −log10 of the molar value.
// reported pIC50 per item

Study these solved cases before continuing.
mol_smiles=COc1ccc(Nc2ncnc(N(CC(=O)O)c3ccc4c(c3)OCO4)n2)cc1OC measured_endpoint=pIC50 reading="5.08 to 5.25"
mol_smiles=COc1cc(Nc2ncnc(Nc3ccc(NCc4ccccc4)cc3)n2)cc(OC)c1OC measured_endpoint=pIC50 reading="< 5.01"
mol_smiles=O=c1[nH]c2ccccc2n1-c1ncnc(Nc2ccc(NS(=O)(=O)c3ccc([N+](=O)[O-])cc3)cc2)n1 measured_endpoint=pIC50 reading="5.32 to 6.10"
mol_smiles=O=c1[nH]c2ccccc2n1-c1ncnc(Nc2ccc(Cl)cc2)n1 measured_endpoint=pIC50 reading="5.15 to 5.93"
mol_smiles=COc1cc(Nc2ncnc(-n3c(N)nc4ccccc43)n2)cc(OCCN2CCOCC2)c1OC measured_endpoint=pIC50 reading="> 6.09"

Next, consider the following molecule.
**Query** Indicate the recorded pIC50 value for this molecule: COc1cc(Nc2ncnc(-n3c(N)nc4ccccc43)n2)cc(OC)c1OC
**Result** > 5.99

----------
Each entry below carries its reported IC50.
Molecular target: AKT (Homo sapiens, UniProt Q9Y243)
Construct: Kinases are expressed as either kinase domains or full length constructs; made in house
Sequence (Q9Y243 whole entry, the tested form may be a part): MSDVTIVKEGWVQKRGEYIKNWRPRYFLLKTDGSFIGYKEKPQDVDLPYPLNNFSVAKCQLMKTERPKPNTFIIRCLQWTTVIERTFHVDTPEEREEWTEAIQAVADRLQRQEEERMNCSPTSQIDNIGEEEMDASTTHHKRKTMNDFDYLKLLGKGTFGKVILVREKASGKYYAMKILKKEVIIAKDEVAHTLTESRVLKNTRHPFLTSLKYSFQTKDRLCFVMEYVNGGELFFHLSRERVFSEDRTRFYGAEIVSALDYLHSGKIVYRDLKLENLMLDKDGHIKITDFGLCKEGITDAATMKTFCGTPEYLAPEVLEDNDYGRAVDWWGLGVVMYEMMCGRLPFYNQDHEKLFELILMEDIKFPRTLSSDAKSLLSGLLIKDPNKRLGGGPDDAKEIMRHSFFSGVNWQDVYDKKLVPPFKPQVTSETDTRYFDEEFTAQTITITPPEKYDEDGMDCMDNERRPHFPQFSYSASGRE
Test: Kinase inhibition assay (33P transfer), AKT
Assay type: biochemical
Conditions: Table 2, kinase inhibition class; read-out: AKT3-1

molecule="COc1ccc(Nc2ncnc(-n3c(=O)[nH]c4ccccc43)n2)cc1OC [Compound 494]" measured_endpoint=IC50 reading="> 12.4 µM"
molecule="COc1cc(Nc2ncnc(-n3c(NCc4ccc(Cl)cc4)nc4ccccc43)n2)cc(OC)c1OC [Compound 944]" measured_endpoint=IC50 reading="> 8.69 µM"
molecule="O=c1[nH]c2ccccc2n1-c1ncnc(Nc2ccccc2)n1 [Compound 482]" measured_endpoint=IC50 reading="> 14.8 µM"
molecule="COc1cc(Nc2ncnc(NC3CCc4ccccc43)n2)cc(OC)c1OC (stereo not shown) [Compound 581]" measured_endpoint=IC50 reading="> 11.4 µM"
molecule="COC(=O)c1ccc(-c2cc(Nc3ncnc(Nc4cccc(CC(N)=O)c4)n3)[nH]n2)cc1 [Compound 577]" measured_endpoint=IC50 reading="> 10.1 µM"

Next, consider the following molecule.
**Query** Fill in IC50 for COc1cc(OC)cc(-c2nnc(Nc3ncnc(Nc4cc(OC)c(OC)c(OC)c4)n3)[nH]2)c1 [Compound 312] tested with AKT (Homo sapiens, UniProt Q9Y243).
**Result** > 9.37 µM
